Molecular target: APJ Receptor (Homo sapiens, UniProt P35414)
Sequence (P35414 1-380): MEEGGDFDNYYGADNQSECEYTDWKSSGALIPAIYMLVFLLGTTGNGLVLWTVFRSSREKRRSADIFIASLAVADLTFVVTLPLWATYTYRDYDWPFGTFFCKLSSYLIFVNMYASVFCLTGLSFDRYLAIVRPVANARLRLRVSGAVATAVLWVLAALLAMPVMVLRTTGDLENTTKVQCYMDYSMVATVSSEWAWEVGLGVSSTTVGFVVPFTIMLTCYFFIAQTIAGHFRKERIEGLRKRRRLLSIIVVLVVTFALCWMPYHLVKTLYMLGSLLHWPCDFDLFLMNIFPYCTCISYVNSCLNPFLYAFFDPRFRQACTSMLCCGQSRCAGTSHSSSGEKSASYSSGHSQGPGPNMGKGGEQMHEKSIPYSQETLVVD
Assay: APJ cAMP assay: inhibition of forskolin-stimulated cAMP, enzyme fragment complementation, in CHO-K1 cells stably expressing the APJ Receptor
Details: CHO-K1 cell line (DiscoverX) stably expressing APJ Receptor; EC80 forskolin; 30 minutes at 37° C.; read-out: APJ cAMP EC50 Potency range
readout-type: EC50

[in] Answer with reported EC50 of COc1cccc(-c2nnc(C(=O)NS(=O)(=O)CC3CCCCC3)n2-c2c(OC)cccc2OC)n1
[out] < 1 nM

Continuing:
[in] In one line, give reported EC50 of the entry CCOc1cccc(-c2nnc(C(=O)NS(=O)(=O)[C@@H](C)c3ccccc3)n2-c2c(OC)cccc2OC)n1 (single isomer, unassigned) .
[out] < 1 nM

[in] Read the entry COc1cccc(-c2nnc(C(=O)NS(=O)(=O)Cc3ccccc3)n2-c2c(F)cccc2OC)n1 and write its reported EC50.
[out] 1 to 100 nM

[in] Supply recorded EC50 for CCOc1cccc(-c2nnc(C(=O)NS(=O)(=O)C[C@H](C)c3ccccc3)n2-c2c(OC)cccc2OC)n1 (single isomer, unassigned) here.
[out] < 1 nM

[in] Tell me its EC50 given CCOc1cccc(-c2nnc(C(=O)NS(=O)(=O)C[C@@H](C)c3ccccc3)n2-c2c(OC)cccc2OC)n1 (single isomer, unassigned) as the entry.
[out] < 1 nM

[in] # return recorded EC50 for entry COc1cccc(-c2nnc(C(=O)NS(=O)(=O)Cc3ncccn3)n2-c2c(OC)cccc2OC)n1
[out] < 1 nM

---

Target: APJ Receptor (Homo sapiens, UniProt P35414)
Experiment: APJ cAMP assay: inhibition of forskolin-stimulated cAMP, enzyme fragment complementation, in CHO-K1 cells stably expressing the APJ Receptor
Settings: CHO-K1 cell line (DiscoverX) stably expressing APJ Receptor; EC80 forskolin; 30 minutes at 37° C.; read-out: APJ cAMP EC50 Potency range
pEC50: −log10 of the molar value.
readout-type: pEC50

[in] Specify pEC50 for COc1cccc(-c2nnc(C(=O)NS(=O)(=O)Cc3cncnc3)n2-c2c(OC)cccc2OC)n1 [Example 36] and stop.
[out] 7.00 to 9.00

[in] Give recorded pEC50. CCOc1cccc(-c2nnc(C(=O)NS(C)(=O)=O)n2-c2c(OC)cccc2OC)n1 [Example 9]
[out] 7.00 to 9.00

[in] Specify measured pEC50 for COc1cccc(OC)c1-n1c(C(=O)NS(=O)(=O)Cc2ccccc2)nnc1-c1nc(C2CC2)n[nH]1 [Example 65] .
[out] 5.00 to 7.00

[in] Identify measured pEC50 associated with COc1cccc(OC)c1-n1c(C(=O)NS(=O)(=O)Cc2ccccc2)nnc1-c1cccc(C)n1 [Example 14]
[out] 7.00 to 9.00

[in] Specify pEC50 for CCOc1cccc(-c2nnc(C(=O)NS(=O)(=O)Cc3ncc(C)cn3)n2-c2c(OC)cccc2OC)n1 [Example 38] and stop.
[out] > 9.00

[in] For the compound CCOc1cccc(-c2nnc(C(=O)NS(=O)(=O)Cc3ncc(F)cn3)n2-c2c(OC)cccc2OC)n1 [Example 42] , give its reported pEC50.
[out] > 9.00

Continuing:
[in] Please report the measured pEC50 for CCOc1cccc(-c2nnc(C(=O)NS(=O)(=O)Cc3ccccc3)n2-c2c(OC)cccc2OC)n1 [Example 2]
[out] > 9.00

[in] Consider the compound COc1cccc(OC)c1-n1c(C(=O)NS(=O)(=O)Cc2ncccn2)nnc1-c1ccc(F)c(OC)n1 [Example 23] and give its recorded pEC50.
[out] 5.00 to 7.00

[in] Quote pEC50 reported for COc1cccc(OC)c1-n1c(C(=O)NS(=O)(=O)Cc2ccccc2)nnc1-c1cccc(OC2CC2)n1 [Example 19] please.
[out] > 9.00

---

Target: APJ Receptor (Homo sapiens)
Test: APJ cAMP assay: inhibition of forskolin-stimulated cAMP, enzyme fragment complementation, in CHO-K1 cells stably expressing the APJ Receptor
Details: CHO-K1 cell line (DiscoverX) stably expressing APJ Receptor; EC80 forskolin; 30 minutes at 37° C.; read-out: APJ cAMP EC50 Potency range
Entries and their EC50 values follow.

Take a look at these entries with their results.
[in] Check the records and state EC50 for CCOc1cccc(-c2nnc(C(=O)NS(=O)(=O)CCc3ccccc3)n2-c2c(OC)cccc2OC)n1 [Example 3]
[out] < 1 nM

[in] Output measured EC50 for this item: COc1cccc(OC)c1-n1c(C(=O)NS(=O)(=O)Cc2ccccc2)nnc1-c1cccc(OC2CCC2)n1 [Example 18]
[out] 1 to 100 nM

[in] Give the reported EC50 for this molecule. CCOc1cccc(-c2nnc(C(=O)N(C)S(=O)(=O)Cc3ccccc3)n2-c2c(OC)cccc2OC)n1 [Example 8]
[out] 1 to 100 nM

Others:
[in] Given the molecule COc1cccc(OC)c1-n1c(C(=O)NS(=O)(=O)Cc2ncc(C)cn2)nnc1-c1ccc(C)cn1 [Example 24] , write its reported EC50.
[out] 100 to 10000 nM

[in] Quickly give me recorded EC50 for CCOc1cccc(-c2nnc(C(=O)NS(=O)(=O)Cc3ncc(OC)cn3)n2-c2c(OC)cccc2OC)n1 [Example 44]
[out] < 1 nM

[in] Fill in EC50 for record COc1nc(-c2nnc(C(=O)NS(=O)(=O)Cc3ccccc3)n2-c2c(OC)cccc2OC)cs1 [Example 6]
[out] 1 to 100 nM

[in] Give EC50 for the following molecule: CCOCc1nnc(C(=O)NS(=O)(=O)Cc2ccccc2)n1-c1c(OC)cccc1OC [Example 7]
[out] 100 to 10000 nM

[in] Determine from records and report EC50 for CCOc1cccc(-c2nnc(C(=O)NS(=O)(=O)Cc3ccccc3F)n2-c2c(OC)cccc2OC)n1 [Example 53]
[out] < 1 nM

---

Biological target: APJ Receptor (Homo sapiens, UniProt P35414)
Test: APJ cAMP assay: inhibition of forskolin-stimulated cAMP, enzyme fragment complementation, in CHO-K1 cells stably expressing the APJ Receptor
Details: CHO-K1 cell line (DiscoverX) stably expressing APJ Receptor; EC80 forskolin; 30 minutes at 37° C.; read-out: APJ cAMP EC50 Potency range
Protocol: Activation of APJ receptor is known to inhibit forskolin-stimulated cyclic AMP (cAMP) production in cells in a pertussis toxin-sensitive manner which indicates primary coupling to the GαI subunit of the G protein heterotrimeric complex. […] Compound activity was analyzed using CBIS data analysis suite (ChemInnovation, CA). […] The biological activity of the exemplified compounds of this invention determined by the assay described above is shown in Table 1. […]
readout-type: EC50

[in] Identify the reported EC50 for the following entry. COc1cccc(-c2nnc(C(=O)NS(=O)(=O)Cc3ccccc3)n2-c2c(OC)cccc2OC)n1 [Example 13]
[out] 1 to 100 nM

[in] Recall and state the measured EC50 for COc1cccc(OC)c1-n1c(C(=O)NS(=O)(=O)Cc2ncccn2)nnc1-c1cc(C)ccn1 [Example 25] .
[out] 100 to 10000 nM

[in] Specify measured EC50 for CCOc1cccc(-c2nnc(C(=O)NS(=O)(=O)Cc3ncccn3)n2-c2c(OC)cccc2OC)n1 [Example 41] .
[out] < 1 nM

[in] Specify reported EC50 for the compound shown: CCOc1cccc(-c2nnc(C(=O)NS(=O)(=O)Cc3ncn(C)n3)n2-c2c(OC)cccc2OC)n1 [Example 54]
[out] < 1 nM

[in] Kindly indicate its recorded EC50. Item: CCOc1cccc(-c2nnc(C(=O)NS(=O)(=O)C(C)Cc3ccccc3)n2-c2c(OC)cccc2OC)n1 (centres unmarked) [Example 57]
[out] < 1 nM

---
[in] Read the entry COc1cccc(-c2nnc(C(=O)NS(=O)(=O)Cc3cnccn3)n2-c2c(OC)cccc2OC)n1 [Example 37] and write its reported EC50.
[out] 1 to 100 nM

[in] Indicate its recorded EC50; the compound in question is COc1ccn(-c2nnc(C(=O)NS(=O)(=O)Cc3ccccc3)n2-c2c(OC)cccc2OC)n1 [Example 10]
[out] 100 to 10000 nM

[in] Check the records and state EC50 for COc1cccc(-c2nnc(C(=O)NS(=O)(=O)Cc3ncc(C)cn3)n2-c2c(OC)cccc2OC)n1 [Example 27]
[out] < 1 nM
